Provenance of the data: the supplement of paper PMC9112550

System: Escherichia coli TOP10;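 also: peptides expressed intracellularly from a pBAD plasmid library in pooled LB shake-flask culture, induced with 0.3% L-arabinose, DNA abundance read by NGS, three biological replicates, DESeq2 with apeglm shrinkage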
experiment.summary: shrunken log2 fold change of peptide-encoding DNA abundance (4.5 h post-induction vs induction); higher = less antimicrobial activity (less host growth inhibition)
condition.parameters: time post-induction: 4.5 h; library: site-saturation at positions 5, 18, 19, 20
Returns one of y or n; y when shrunken log2 fold change is >= 0.2.

sequence.string	label.value
RRIRVRPPRLPRPRPRPNCVPRP	n
RRIRCRPPRLPRPRPRPLWGPRP	n
RRIRGRPPRLPRPRPRPFGAPRP	y
RRIRHRPPRLPRPRPRPPCAPRP	y
RRIRERPPRLPRPRPRPFDNPRP	y
RRIRWRPPRLPRPRPRPVLCPRP	y
RRIRFRPPRLPRPRPRPCRSPRP	y
RRIRNRPPRLPRPRPRPLIDPRP	n
RRIRSRPPRLPRPRPRPQVLPRP	n
RRIRPRPPRLPRPRPRPNIAPRP	y
RRIRPRPPRLPRPRPRPFDSPRP	n
RRIRDRPPRLPRPRPRPNFNPRP	n
RRIRDRPPRLPRPRPRPEIGPRP	y
RRIRTRPPRLPRPRPRPWRPPRP	n
RRIRNRPPRLPRPRPRPYAKPRP	n
